- TEST SUMMARY: folding stability dG unfold from trypsin proteolysis; higher = more stable
In this section, each of the sequences is paired with its reported folding stability dG unfold.
Supply the numeric figure in kcal/mol, leaving out any unit text.

Examples with their reported folding stability dG unfold follow.
BIOPOLYMER SEQUENCE	UNITS	folding stability dG unfold
SAGGMKTLRLVVTVKVPKETGKPTVAEKLAEELAKLPGVEVVKVEVKRLENGTVVVTIEIKVPKELKPSAGG [r13_428_TrROS_Hall]	kcal/mol	3.13
SAGGSAGGSAGMPPPVVVEPKRTSVVPESGLVIIPVTVFNPANGKATLTTYLYDPATGKLVLSAGGSAGGSA [r18_228_JUSTAS]	kcal/mol	0.734
SAKKIKIKEITITVEKNKDGSYTITITVDGKKIAELTFKTPEEAEKAAEELAKELAKKLNVDKIEIKPTSAG [r14_791_TrROS_Hall]	kcal/mol	1.5

Please look at the following sequence next.
Enquiry: Fill in reported folding stability dG unfold for this entry: SAGGSAGGSMIFFPNITKEEFEEIFRKKGYKVKRYPSTNVIEVTGKDGKPIKAVVIPVSPEEFSAGGSAGGS [r12_211_TrMRF]
Return: 0.677

----------
- TEST SUMMARY: folding stability dG unfold (combined trypsin and chymotrypsin); higher = more stable
In this section, each of the sequences is paired with its reported folding stability dG unfold.
Supply the numeric figure in kcal/mol, leaving out any unit text.

BIOPOLYMER SEQUENCE	folding stability dG unfold (kcal/mol)
SAGMKTYTITVPASEAEEAAEKAAEEIKKELGLPDSDTVEVTVTSYDPKTGTVTITITVTRPLPGGLSLSAG [r5_537_JUSTAS]	2.19

Please look at the following sequence next.
Enquiry: Fill in reported folding stability dG unfold for this entry: SMMKIRIVNKETKEEIEEIEIEKNEDGSYTIKIKIKKNGKTYEIEIKLPKGMKIEELLKKLGIEKAEIEPSA [r9_492_TrROS_Hall]
Return: 1.79

----------
- TEST SUMMARY: folding stability dG unfold (combined trypsin and chymotrypsin); higher = more stable
In this section, each of the sequences is paired with its reported folding stability dG unfold.
Supply the numeric figure in kcal/mol, leaving out any unit text.

BIOPOLYMER SEQUENCE	folding stability dG unfold / kcal/mol
SMVKIYFPNAPPELVAEAIEKHPDSTVEIYFEPGKPDVFESILKDYDVEVEPFPTEDGRLLVKARVKVPGSA [r9_1138_TrMRF]	1.74
SAGGSAGGSAMTVSIPPEVITSVEYDPSTNKVTITPSDGSVKTYDVESPEEVFKANNIGPESAGGSAGGSAG [r3_34_JUSTAS]	0.753
STLTLEELKERFPELSEEELEALAERLAALPAPVTVTVEVRPAPPPPVEERELSEEELLEARLRPGERVESA [r9_1024_TrROS_Hall]	1.51
SAGGSAGGSAIKPGETIPIKIGNFPIKITVYGDWVEITFPNGRKIRFRVAVDDGKLEIDIYFSAGGSAGGSA [r18_172_TrROS]	4.18
SAGGMVKIVRVTFEDGRELVLTEPEKIEEFLKKALGPNFVIKEVREGYVPHPDGPPIPTFELVVERPSAGGS [r16_408_TrMRF]	2.44

Please look at the following sequence next.
Enquiry: Fill in reported folding stability dG unfold for this entry: SAGGSMTITYDPETNTVTILDPNIPPNEPRPVTLTLPDGEKYTLTLRPVPGNGWTGTLTWKSTKDGSAGGSA [r2_89_TrMRF]
Return: 1.27

----------
- TEST SUMMARY: folding stability dG unfold (combined trypsin and chymotrypsin); higher = more stable
RECORDED METRIC: folding stability dG unfold (kcal/mol)
Supply the numeric figure in kcal/mol, leaving out any unit text.

Examples with their reported folding stability dG unfold follow.
BIOPOLYMER SEQUENCE	folding stability dG unfold / kcal/mol
SAGSMKIKIKAKVPPGPYRIRIMWQYPGGDFKPVEEETVDPGQEVKIPIEFPDGKPFDPDNIRVMIEPPSAG [r5_287_TrROS]	2.08
SAGGSAYGYFYEYKIRFNGQDLSIALPAGDMEKLKDLPGVEIEPRRPEEPPPPPKEEERDPDGKKKSAGGSA [r15_443_TrROS]	2.8
SAGGSAGGSAGKTYTLTITTENGKTITLPKDVEVVYDEKTGYLYIKNKKTNKVIKVKLKDSAGGSAGGSAGG [r17_432_TrROS_Hall]	2.19
SAGGSAGGSAGKEIIKNIPKGVKVLKIEPLPGKSGTYVKIEVEFPDPNGVKHRLTFIAPESAGGSAGGSAGG [r17_140_TrMRF]	1.16
SAGEELIKKLAEELNLEVEIVSVEVDEETPTITVEVRVRNKDGEELTVRITITYDKETDEVHIEVEVLPSAG [r5_929_TrROS_Hall]	4.08

Please look at the following sequence next.
Enquiry: Fill in reported folding stability dG unfold for this entry: SAGGSSSMVTRTPSTSTVTVKRGNGPVTVSLPTTVVTRPDGSRTLETTVDTKDPAGNPAATTVTPAPSAGGS [r16_581_JUSTAS]
Return: 0.643

----------
- TEST SUMMARY: folding stability dG unfold (combined trypsin and chymotrypsin); higher = more stable
# folding stability dG unfold >= 1 kcal/mol gives YES, anything below gives NO

BIOPOLYMER SEQUENCE	GROUP LABEL
SAGGMKIRIPEGQEVKLKKVRFWHNGKPWKIPNMEIKVDRIDPNDNRVQIEIKHPNGRPHTFAFDIKSAGGS [r8_215_TrROS]	NO
SAGGKEIYVVRIEVYYPSNGKVEEKEYVIEATPEEAEELAKKIAEAFKEEAGEEVEVLRVEIKVYDLSAGGS [r16_140_TrMRF]	YES
SAGGSADMPMLPIEEIIDQLKEAKEANPNKKRTIEIPYPDGMPMQIEIDNDGKTKIEHPDGQWITISAGGSA [r15_73_TrROS]	NO
SAGGSAGGSAGGKGWPTVEIPMPENGKPTPDSIEEIAEKFNMPNVEVEQSDDWHKIDVDSAGGSAGGSAGGS [r10_642_TrROS]	NO
SAGGSATFEEALREVAEPTGAVPYVDPETGVAYVDFPDGKELEIEVPDGDRIEVRVLPDGRAVARGSAGGSA [r15_256_TrMRF]	NO

Enquiry: Dear colleague, could you confirm whether SAGGKNITIDDITFQPQRDNGKPRYYMEVKVELPNGNPIPITMPMDRMQNNGMSPKTFAKWIAKWLLSAGGS [r16_625_TrROS] has folding stability dG unfold at or above 1 kcal/mol?
Return: YES

Enquiry: Dear colleague, could you confirm whether SENWEPEPITFPDGITIWVMPDYGMIDIIDPDKGTFEMFMIRVDPNGKPEINPLTFKLDPPNGKIKDITPSA [r9_122_TrROS] has folding stability dG unfold at or above 1 kcal/mol?
Return: NO

Enquiry: Dear colleague, could you confirm whether SGSFKLLKVEEHPDNPSITAVLTFPDGSTATLRFRPDGSWTGYVESTGKPFTAVSGENELKLFVPEELTLSA [r9_233_TrMRF] has folding stability dG unfold at or above 1 kcal/mol?
Return: NO

Enquiry: Dear colleague, could you confirm whether SAGGSMIELTLTSTVPDGTPASTVPPEVAREQALAYAEAQGLTVVEIRVEFDPEAGTITIPVVTALSAGGSA [r2_237_JUSTAS] has folding stability dG unfold at or above 1 kcal/mol?
Return: YES

----------
- TEST SUMMARY: folding stability dG unfold (combined trypsin and chymotrypsin); higher = more stable
In this section, each of the sequences is paired with its reported folding stability dG unfold.
Supply the numeric figure in kcal/mol, leaving out any unit text.

Examples with their reported folding stability dG unfold follow.
BIOPOLYMER SEQUENCE	folding stability dG unfold [kcal/mol]
SAGGGPDEVSEVKVSSTTTDPATGKTYTVDTTTVTTPGTVTTNTTYTVHDPVTGAVTTETTTTTTPPGSAGG [r13_206_JUSTAS]	0.59
SMVITLPVEDEEKLKELLDELKEQLEKAEEEGLETVTITITLEDGETLEITIDKNMTVEELLEQLEKALESA [r9_127_TrROS_Hall]	2.61
SAGGSATLKEIAKEIEKTVKPKYAKKLAKTIEEAVKKGYEIKKIIIEKPKDDSFKATIYLKKPNDPSAGGSA [r15_613_TrMRF]	0.66
SAGGSAGGSAGGKRRIQIPPDDPGMTAEQLADRLQKEFPENGVPVEITNIDDYGYIEIESAGGSAGGSAGGS [r10_579_TrROS]	0.443
SAGGSAGGSAPEVKIKVELFENENGELTATATIEVDGKLYKITVKFDKNGKIVEVKIEELPSAGGSAGGSAG [r3_165_TrROS_Hall]	4.14

Please look at the following sequence next.
Enquiry: Fill in reported folding stability dG unfold for this entry: SDWHYIQIPFEITFKAPPEQARQFVEDLAENLGITDINVDNIEYDPNNGEVKVKVSISIMIPPPPPPEDDSA [r9_918_TrROS]
Return: 2.73
